Test system: VDR:RXRa (NR concentration 270 nM, RXRa partner concentration 90 nM)
experiment-description: PBM binding z-score (relative to random genomic background probes); higher = stronger binding; sequences stand for … in GC…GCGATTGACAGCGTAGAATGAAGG
Could you please report measured PBM binding z-score for the items listed next?

Query `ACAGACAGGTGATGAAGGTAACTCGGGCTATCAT` yields PBM binding z-score of 0.101

Query `AGAGTGAGGTTAAGATCAGGGAAACAGAATACAT` yields PBM binding z-score of 1.62

Query `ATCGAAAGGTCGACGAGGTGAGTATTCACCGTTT` yields PBM binding z-score of 5.38

Query `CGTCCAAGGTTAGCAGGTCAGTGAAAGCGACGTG` yields PBM binding z-score of 1

Query `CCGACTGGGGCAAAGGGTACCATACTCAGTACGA` yields PBM binding z-score of 0.4

Query `GGTTACGGGTCAAAGGTTATAGCATGAATAGAAT` yields PBM binding z-score of 5.46

Query `TCTTGTAGATCAAGAGAGGTTAAGAAAGTGCGCT` yields PBM binding z-score of 1.77

Query `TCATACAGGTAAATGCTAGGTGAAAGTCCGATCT` yields PBM binding z-score of 0.69

---

Test system: PPARg homodimer (NR concentration 180 nM)
experiment-description: PBM binding z-score (relative to random genomic background probes); higher = stronger binding; sequences stand for … in GC…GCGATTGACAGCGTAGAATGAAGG
experimental-endpoint: PBM binding z-score

Result for `ACTACTAGTTGAGACGAGGGCAACCGATAGGTTG` , tested on PPARg homodimer (NR concentration 180 nM), PBM binding z-score: 0.265

Result for `GCAGACAGGTGAAACGCAGCTAACTCAGGGTGGC` , tested on PPARg homodimer (NR concentration 180 nM), PBM binding z-score: -1.08

Result for `GCTGCTAGGTCAACTGATGGTCAGTTAAAGCTCG` , tested on PPARg homodimer (NR concentration 180 nM), PBM binding z-score: 1.79

Result for `CGTCAAAGTTCAAGGTAACGTAACAGAAAGCAGC` , tested on PPARg homodimer (NR concentration 180 nM), PBM binding z-score: 2.19

Result for `ATATGTAGGTTACATCTGGGTCATTCAGGCTATG` , tested on PPARg homodimer (NR concentration 180 nM), PBM binding z-score: 1.95

Result for `ACTAGCAGGCCAAGGGTCTCTCAAGATTAGTCCG` , tested on PPARg homodimer (NR concentration 180 nM), PBM binding z-score: -0.604

Result for `CGTCCAAGGTCAATGCTCGGTCAGTGAAAGCATT` , tested on PPARg homodimer (NR concentration 180 nM), PBM binding z-score: 2.78

Result for `GCAGACAGGTGAAACGCAGGTAACGCAGGGTGGC` , tested on PPARg homodimer (NR concentration 180 nM), PBM binding z-score: -0.678

Result for `CCTTACGGGTCACGCGGTTATAGCACGACGAGCG` , tested on PPARg homodimer (NR concentration 180 nM), PBM binding z-score: 1.05

Result for `TCTCGGAGGACACTAAGGTCAGAGCTTTCCAGAG` , tested on PPARg homodimer (NR concentration 180 nM), PBM binding z-score: 1.72

Result for `CAAACTAGGTCAAAGGACAAAGTCGAGCCAACCA` , tested on PPARg homodimer (NR concentration 180 nM), PBM binding z-score: 1.32

Result for `GTGACTGGGGCATCAGCAGGTTACCATAACTTAA` , tested on PPARg homodimer (NR concentration 180 nM), PBM binding z-score: 0.222

Result for `AGTCAAAGTTCATCTACGTAACGTAAGATATGCT` , tested on PPARg homodimer (NR concentration 180 nM), PBM binding z-score: 2.94

Result for `AGAAAGAGGTTACCAAAGATCAGGGAAACGCTTG` , tested on PPARg homodimer (NR concentration 180 nM), PBM binding z-score: 0.75

Result for `CCTACTGGGCCAAAGCTCATTGATTCCAATGCTC` , tested on PPARg homodimer (NR concentration 180 nM), PBM binding z-score: -0.0929

Result for `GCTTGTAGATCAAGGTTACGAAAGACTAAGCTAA` , tested on PPARg homodimer (NR concentration 180 nM), PBM binding z-score: 0.354

Result for `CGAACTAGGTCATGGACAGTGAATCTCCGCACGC` , tested on PPARg homodimer (NR concentration 180 nM), PBM binding z-score: 1.69

Result for `TCATATAGGTAATACAGGGGAAAGTCGGCATCTA` , tested on PPARg homodimer (NR concentration 180 nM), PBM binding z-score: 0.957

Result for `CGTTCAAGGTCAAGGTCAGTGAAAGAGACTCGAA` , tested on PPARg homodimer (NR concentration 180 nM), PBM binding z-score: 3.58

Result for `TCATATATGTAAAAGGTGAAAGTCGGTGTGGTAA` , tested on PPARg homodimer (NR concentration 180 nM), PBM binding z-score: 1.98

Result for `TAGCCTAGGTCATGGGCCGGTATACCACGCGAAC` , tested on PPARg homodimer (NR concentration 180 nM), PBM binding z-score: 1.23

Result for `GCAGACAGGTGAAAGGCAGGTAACTCAGGGTGGC` , tested on PPARg homodimer (NR concentration 180 nM), PBM binding z-score: 0.447

Result for `CATACAGGGTCAGCTACGCCAGAGTAGGGACGGC` , tested on PPARg homodimer (NR concentration 180 nM), PBM binding z-score: 1.54

Result for `ATCTTTAGGTAACAAGTTCAGTGAAAGAGAGGAC` , tested on PPARg homodimer (NR concentration 180 nM), PBM binding z-score: 1.33

Result for `ATACCAAGGTGATCGTGAGGTCGTAGATACTAAC` , tested on PPARg homodimer (NR concentration 180 nM), PBM binding z-score: 0.811

Result for `CGTCCAAGGTCAAGGTCAGTGAAAGAGACTCGAA` , tested on PPARg homodimer (NR concentration 180 nM), PBM binding z-score: 4.38

Result for `GCTCGGAGGAAAAGGTCAGAGCTTTGTCCGTAGA` , tested on PPARg homodimer (NR concentration 180 nM), PBM binding z-score: 1.55

Result for `AGAATGAGGTAAAGATCAGGGAAACAGAATACAT` , tested on PPARg homodimer (NR concentration 180 nM), PBM binding z-score: 0.296

Result for `GCAGACAGGTGAAACGCACGTAACTCAGGGTGGC` , tested on PPARg homodimer (NR concentration 180 nM), PBM binding z-score: -0.768
